molecular target: recombinant full-length WRN protein (1-1432) (Homo sapiens, UniProt Q14191); construct: recombinant full-length WRN protein (1-1432); assay: WRN unwinding activity, fluorogenic 384-well assay (Example A); type: biochemical; conditions: WRN unwinding activity, 4 hr; Table 2; read-out: 4 hr UNW pIC50 (converted)
Sequence (Q14191 whole entry): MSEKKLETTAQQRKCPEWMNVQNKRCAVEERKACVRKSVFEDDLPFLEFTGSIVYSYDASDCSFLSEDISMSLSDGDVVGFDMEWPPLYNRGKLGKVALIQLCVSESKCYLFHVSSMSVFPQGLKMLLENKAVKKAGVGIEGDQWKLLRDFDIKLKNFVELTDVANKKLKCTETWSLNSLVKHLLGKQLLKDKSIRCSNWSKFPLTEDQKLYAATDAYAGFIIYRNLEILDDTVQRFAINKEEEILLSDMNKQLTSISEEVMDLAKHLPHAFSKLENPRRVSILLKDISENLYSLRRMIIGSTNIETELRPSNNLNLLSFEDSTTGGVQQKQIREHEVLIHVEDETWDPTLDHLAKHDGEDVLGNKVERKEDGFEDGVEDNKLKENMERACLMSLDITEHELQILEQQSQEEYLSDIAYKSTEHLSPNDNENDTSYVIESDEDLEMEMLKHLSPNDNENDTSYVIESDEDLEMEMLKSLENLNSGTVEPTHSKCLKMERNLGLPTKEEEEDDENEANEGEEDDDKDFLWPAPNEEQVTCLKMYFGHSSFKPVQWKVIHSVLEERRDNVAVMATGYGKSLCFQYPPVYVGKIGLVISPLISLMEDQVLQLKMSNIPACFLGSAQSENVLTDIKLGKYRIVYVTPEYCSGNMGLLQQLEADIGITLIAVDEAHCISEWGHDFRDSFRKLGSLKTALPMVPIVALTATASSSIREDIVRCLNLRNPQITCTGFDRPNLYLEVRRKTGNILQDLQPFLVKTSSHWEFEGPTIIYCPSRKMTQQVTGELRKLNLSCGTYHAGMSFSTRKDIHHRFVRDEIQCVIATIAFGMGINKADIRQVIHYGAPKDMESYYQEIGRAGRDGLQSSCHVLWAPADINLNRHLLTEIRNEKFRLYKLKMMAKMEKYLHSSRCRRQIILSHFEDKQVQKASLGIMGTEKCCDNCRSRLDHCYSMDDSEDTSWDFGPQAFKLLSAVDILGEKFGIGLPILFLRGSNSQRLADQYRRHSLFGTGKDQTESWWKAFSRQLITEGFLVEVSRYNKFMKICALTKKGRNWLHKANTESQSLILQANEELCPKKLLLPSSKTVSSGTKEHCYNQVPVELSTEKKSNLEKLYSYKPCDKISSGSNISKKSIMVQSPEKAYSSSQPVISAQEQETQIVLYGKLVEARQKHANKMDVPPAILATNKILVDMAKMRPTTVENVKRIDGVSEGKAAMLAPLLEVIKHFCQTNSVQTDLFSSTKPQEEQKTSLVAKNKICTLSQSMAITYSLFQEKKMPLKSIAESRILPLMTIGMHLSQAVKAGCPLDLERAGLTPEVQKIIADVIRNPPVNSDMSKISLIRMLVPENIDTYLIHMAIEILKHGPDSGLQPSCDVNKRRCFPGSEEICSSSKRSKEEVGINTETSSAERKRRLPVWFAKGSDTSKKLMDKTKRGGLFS
Measure Name: log10 of IC50 (log10 of the value in nM)

- Molecule: "O=C(O)[C@@H]1[C@@H](c2ccc(C(F)(F)F)cc2CO)CCC[C@H]1C(=O)Nc1ccc(C(F)(F)F)cc1F (racemic)"
  Target Under Test: "recombinant full-length WRN protein (1-1432) (Homo sapiens, UniProt Q14191)"
  log10 of IC50: 2.10
- Molecule: "Cc1nc2cc(S(=O)(=O)N(C)c3ccc([C@H]4CCC[C@@H](C(=O)Nc5ccc(C(C)(C)O)cc5F)[C@@H]4C(=O)O)cc3)ccc2n1C"
  Target Under Test: "recombinant full-length WRN protein (1-1432) (Homo sapiens, UniProt Q14191)"
  log10 of IC50: 0.20
- Molecule: "COc1cc(C(F)(F)F)ccc1[C@H]1CCC[C@@H](C(=O)Nc2ccc(C(F)(F)F)cc2F)[C@@H]1C(=O)O (racemic)"
  Target Under Test: "recombinant full-length WRN protein (1-1432) (Homo sapiens, UniProt Q14191)"
  log10 of IC50: 2.30
- Molecule: "CN(c1ccc([C@H]2CCC[C@@H](C(=O)Nc3ccc(C(F)(F)F)cc3F)[C@@H]2C(=O)O)cc1)S(=O)(=O)c1cccc(S(N)(=O)=O)c1"
  Target Under Test: "recombinant full-length WRN protein (1-1432) (Homo sapiens, UniProt Q14191)"
  log10 of IC50: 0.90
- Molecule: "O=C(O)[C@@H]1[C@@H](c2ccc(C3CCCCC3)cc2)CCC[C@H]1C(=O)Nc1ccc(C(F)(F)F)cc1F"
  Target Under Test: "recombinant full-length WRN protein (1-1432) (Homo sapiens, UniProt Q14191)"
  log10 of IC50: 2.10
- Molecule: "Cc1nc2cc(S(=O)(=O)N(C)c3ccc([C@H]4CCC[C@@H](C(=O)Nc5ccc(C(F)(F)F)cc5F)[C@@H]4C(=O)O)c(F)c3)ccc2n1C (single isomer, unassigned) [Example 374]"
  Target Under Test: "recombinant full-length WRN protein (1-1432) (Homo sapiens, UniProt Q14191)"
  log10 of IC50: 0.60

* * *

test system: SW48 human colorectal cancer cells (MSI-H cancer cells); test: SW48 cell viability, CellTiter-Glo, 120 hours (Example B); settings: Homo sapiens, SW48, 120 h, read-out: SW48 pCC50, SW48 cell viability, 120 hours incubation (converted); Table 2
molecules and their reported CC50

- Molecule: "CN(c1ccc([C@H]2CCC[C@@H](C(=O)Nc3ccc(C(F)(F)F)cc3F)[C@@H]2C(=O)O)cc1)S(=O)(=O)c1cccc(C2CC2(F)F)c1 (stereo partly drawn)"
  CC50: "3.16 µM"
- Molecule: "Cc1nc2cc(S(=O)(=O)N(C)c3ccc([C@H]4CCC[C@@H](C(=O)Nc5ccc6c(c5)CC(F)(F)C6)[C@@H]4C(=O)O)cc3)ccc2n1C"
  CC50: "10 µM"
- Molecule: "CN[C@@H]1C[C@H](c2ccc(N(C)S(=O)(=O)c3ccc4c(c3)nc(C)n4C)cc2)[C@@H](C(=O)O)[C@H](C(=O)Nc2ccc(C(F)(F)F)cc2F)C1 (single isomer, unassigned)"
  CC50: "6.31 µM"
